Target: D(1A) dopamine receptor (Homo sapiens)
Experiment: Allosteric Agonists of the Human D1 Dopamine Receptor: qHTS; further: 0% is about no effect
Settings: HEK293 T-REx D1 cells, calcium flux, agonist mode; at 2 µM; hits give high values
Description: NIH Chemical Genomics Center [NCGC] NIH Molecular Libraries Probe Centers Network [MLPCN] […] Freshly passaged cells are plated in 1536 well black, clear bottom plates at a density of 4000 cells/well in 3 ul of complete media containing 1x tetracycline inducer. […] Agonist read: A 10 cycle (1 second/cycle) baseline measurement is taken and then the FDSS online 1536 pintool delivers 23 nl of compound library (as well as dopamine controls) to the plate. […]
The campaign covered roughly 360,000 compounds. About 3,700 (1%) were called active. Shown is part of a subset that was picked to be rich in actives.
measurement type: activation (%)
Give the value in % but do not write % after it.

structure as smiles	activation [%]
Cc1ccc2nc(COc3cccc(NC(=O)c4ccccc4Cl)c3)cc(=O)n2c1	0.0743

Kindly review the next compound as well.
Quick note, activation for N#C/C(=C/c1ccc(N2CCOCC2)o1)C(=O)N1CCOCC1 landed at 51.4
